target: DPP9 (Homo sapiens (Human))
Sequence (Q86TI2 whole entry): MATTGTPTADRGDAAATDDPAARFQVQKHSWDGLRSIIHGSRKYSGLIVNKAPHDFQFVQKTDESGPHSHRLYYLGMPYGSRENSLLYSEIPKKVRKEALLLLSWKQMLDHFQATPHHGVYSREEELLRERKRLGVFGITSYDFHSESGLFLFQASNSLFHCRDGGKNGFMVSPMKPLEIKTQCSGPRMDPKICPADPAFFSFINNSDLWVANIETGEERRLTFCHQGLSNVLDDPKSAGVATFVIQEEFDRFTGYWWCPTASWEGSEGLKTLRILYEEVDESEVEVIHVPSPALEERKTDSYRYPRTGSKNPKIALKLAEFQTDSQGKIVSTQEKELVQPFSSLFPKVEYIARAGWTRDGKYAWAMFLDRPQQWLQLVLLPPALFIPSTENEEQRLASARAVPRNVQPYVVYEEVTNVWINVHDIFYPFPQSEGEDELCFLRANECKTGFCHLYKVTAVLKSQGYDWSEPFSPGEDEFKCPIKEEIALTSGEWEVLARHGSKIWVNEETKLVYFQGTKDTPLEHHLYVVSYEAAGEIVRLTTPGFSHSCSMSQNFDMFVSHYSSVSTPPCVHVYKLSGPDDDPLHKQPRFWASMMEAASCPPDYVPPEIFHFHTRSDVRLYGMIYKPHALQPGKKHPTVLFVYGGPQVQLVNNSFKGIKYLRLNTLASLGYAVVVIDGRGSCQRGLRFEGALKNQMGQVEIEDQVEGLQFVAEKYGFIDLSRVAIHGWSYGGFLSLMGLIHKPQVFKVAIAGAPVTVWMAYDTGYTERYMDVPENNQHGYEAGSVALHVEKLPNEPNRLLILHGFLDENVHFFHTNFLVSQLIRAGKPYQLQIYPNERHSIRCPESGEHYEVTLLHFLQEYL
procedureDetails: DPP9 enzyme inhibition, IC50 measurement (Ala-Pro-pNA release)
Assay type: biochemical
conditionNotes: Table 1; mean ± SD (n = 3); read-out: IC50 DPP9
Note to self: use yes only for IC50 readings below 200 nM; a reading exactly at 200 nM still gets no.

In [3]: df
Out[3]:
                               linenotation                       target  classification
0  C=C1C[C@@H](C#N)N(C(=O)CNC23CC4CC(CC(O)(C4)C2)C3)C1  DPP9 (Homo sapiens (Human))              no
1  CCCCOC12CC3CC(CC(NCC(=O)N4CCC[C@H]4C#N)(C3)C1)C2  DPP9 (Homo sapiens (Human))             yes
2  CCCCOC12CC3CC(CC(NCC(=O)N4C[C@@H](N=[N+]=[N-])C[C@H]4C#N)(C3)C1)C2  DPP9 (Homo sapiens (Human))             yes
3  C=C1C[C@@H](C#N)N(C(=O)CNC23CC4CC(C2)CC(OCc2ccccc2)(C4)C3)C1  DPP9 (Homo sapiens (Human))             yes
4  N#C[C@@H]1[C@@H]2C[C@@H]2CN1C(=O)CNC12CC3CC(C1)CC(OCc1ccc(F)cc1F)(C3)C2  DPP9 (Homo sapiens (Human))              no
5  C=C1C[C@@H](C#N)N(C(=O)CNC23CC4CC(C2)CC(OCCCC)(C4)C3)C1  DPP9 (Homo sapiens (Human))              no
6  CCCCOC12CC3CC(CC(NCC(=O)N4C[C@H]5C[C@H]5[C@H]4C#N)(C3)C1)C2  DPP9 (Homo sapiens (Human))              no
